# test name: Dynamic solubility in biorelevant media and buffers at 37 °C (HPLC, XRPD of solids)
# Type: physicochemical
# conditions: water, thermodynamic from solid, 1 hour
measured property: solubility at 1 h
Write the numeric value and follow it with the unit.

Request: Give the measured solubility at 1 h of CCCc1nc(-c2ccc(-c3ccc(CCC(N)(CO)CO)cc3)cc2)co1.Cl [Crystal form A] .
Response: 2020 µg/mL

----------
# test name: Equilibrium solubility in organic solvents at room temperature (HPLC, XRPD of solids)
# Type: physicochemical
# conditions: acetone, organic solvent or mixture, thermodynamic from solid, 24 hours of equilibrium
# Method: After 24 hours of equilibrium, the saturated solutions were obtained by filtration. The contents of the samples in the saturated solutions were determined by high-performance liquid chromatography (HPLC) (the filtered solutions were diluted as needed), and the crystal forms of the solids before and after the experiment were characterized by XRPD to check whether phase changes occurred.
measured property: solubility at 24 h (µg/mL)
Dear colleague, please return just the value in µg/mL, with no unit written.

Request: Give the measured solubility at 24 h of CCCc1nc(-c2ccc(-c3ccc(CCC(N)(CO)CO)cc3)cc2)co1.Cl [Crystal form A] .
Response: 43

----------
# test name: Dynamic solubility in biorelevant media and buffers at 37 °C (HPLC, XRPD of solids)
# Assay type: physicochemical
# conditions: phosphate buffer, pH 6.8, aqueous buffer, thermodynamic from solid, pH = 6.8 phosphate buffer, 2 hours
measured property: solubility at 2 h (µg/mL)
Dear colleague, please return just the value in µg/mL, with no unit written.

Request: Give the measured solubility at 2 h of CCCc1nc(-c2ccc(-c3ccc(CCC(N)(CO)CO)cc3)cc2)co1.Cl [Crystal form B] .
Response: 0.28

----------
# test name: Dynamic solubility in biorelevant media and buffers at 37 °C (HPLC, XRPD of solids)
# Assay type: physicochemical
# conditions: fed state simulated intestinal fluid (FeSSIF), pH 5, fessif, thermodynamic from solid, FeSSIF (pH of 5.0), 1 hour
measured property: solubility at 1 h (µg/mL)
Dear colleague, please return just the value in µg/mL, with no unit written.

Request: Give the measured solubility at 1 h of CCCc1nc(-c2ccc(-c3ccc(CCC(N)(CO)CO)cc3)cc2)co1.Cl [Crystal form A] .
Response: 1930

----------
# test name: Dynamic solubility in biorelevant media and buffers at 37 °C (HPLC, XRPD of solids)
# Type: physicochemical
# conditions: acetic acid-sodium acetate buffer, pH 4, aqueous buffer, thermodynamic from solid, pH = 4.0 acetic acid-sodium acetate buffer, 24 hours
measured property: solubility at 24 h (µg/mL)
Dear colleague, please return just the value in µg/mL, with no unit written.

Request: Give the measured solubility at 24 h of CCCc1nc(-c2ccc(-c3ccc(CCC(N)(CO)CO)cc3)cc2)co1.Cl [Crystal form A] .
Response: 4110

----------
# test name: Dynamic solubility in biorelevant media and buffers at 37 °C (HPLC, XRPD of solids)
# Type: physicochemical
# conditions: acetic acid-sodium acetate buffer, pH 4, aqueous buffer, thermodynamic from solid, pH = 4.0 acetic acid-sodium acetate buffer, 1 hour
measured property: solubility at 1 h

Request: Give the measured solubility at 1 h of CCCc1nc(-c2ccc(-c3ccc(CCC(N)(CO)CO)cc3)cc2)co1.Cl [Crystal form A] .
Response: 1690 µg/mL

----------
# test name: Dynamic solubility in biorelevant media and buffers at 37 °C (HPLC, XRPD of solids)
# Type: physicochemical
# conditions: hydrochloric acid aqueous solution, pH 1, simulated gastric fluid, thermodynamic from solid, pH = 1.0 hydrochloric acid aqueous solution, 2 hours
measured property: solubility at 2 h (µg/mL)
Dear colleague, please return just the value in µg/mL, with no unit written.

Request: Give the measured solubility at 2 h of CCCc1nc(-c2ccc(-c3ccc(CCC(N)(CO)CO)cc3)cc2)co1.Cl [Crystal form A] .
Response: 280

----------
# test name: Dynamic solubility in biorelevant media and buffers at 37 °C (HPLC, XRPD of solids)
# Format: physicochemical
# conditions: water, thermodynamic from solid, 24 hours
measured property: solubility at 24 h
Write the numeric value and follow it with the unit.

Request: Give the measured solubility at 24 h of CCCc1nc(-c2ccc(-c3ccc(CCC(N)(CO)CO)cc3)cc2)co1.Cl [Crystal form A] .
Response: 3290 µg/mL

----------
# test name: Dynamic solubility in biorelevant media and buffers at 37 °C (HPLC, XRPD of solids)
# Type: physicochemical
# conditions: fed state simulated intestinal fluid (FeSSIF), pH 5, fessif, thermodynamic from solid, FeSSIF (pH of 5.0), 2 hours
measured property: solubility at 2 h

Request: Give the measured solubility at 2 h of CCCc1nc(-c2ccc(-c3ccc(CCC(N)(CO)CO)cc3)cc2)co1.Cl [Crystal form A] .
Response: 2110 µg/mL

----------
# test name: Dynamic solubility in biorelevant media and buffers at 37 °C (HPLC, XRPD of solids)
# Assay type: physicochemical
# conditions: hydrochloric acid aqueous solution, pH 1, simulated gastric fluid, thermodynamic from solid, pH = 1.0 hydrochloric acid aqueous solution, 1 hour
measured property: solubility at 1 h (µg/mL)
Dear colleague, please return just the value in µg/mL, with no unit written.

Request: Give the measured solubility at 1 h of CCCc1nc(-c2ccc(-c3ccc(CCC(N)(CO)CO)cc3)cc2)co1.Cl [Crystal form A] .
Response: 280

----------
# test name: Dynamic solubility in biorelevant media and buffers at 37 °C (HPLC, XRPD of solids)
# Type: physicochemical
# conditions: water, thermodynamic from solid, 2 hours
measured property: solubility at 2 h (µg/mL)
Dear colleague, please return just the value in µg/mL, with no unit written.

Request: Give the measured solubility at 2 h of CCCc1nc(-c2ccc(-c3ccc(CCC(N)(CO)CO)cc3)cc2)co1.Cl [Crystal form A] .
Response: 2570

----------
# test name: Dynamic solubility in biorelevant media and buffers at 37 °C (HPLC, XRPD of solids)
# Type: physicochemical
# conditions: simulated gastric fluid (SGF), pH 1, simulated gastric fluid, thermodynamic from solid, SGF (pH of 1.0), 4 hours
measured property: solubility at 4 h

Request: Give the measured solubility at 4 h of CCCc1nc(-c2ccc(-c3ccc(CCC(N)(CO)CO)cc3)cc2)co1.Cl [Crystal form A] .
Response: 280 µg/mL

----------
# test name: Dynamic solubility in biorelevant media and buffers at 37 °C (HPLC, XRPD of solids)
# Type: physicochemical
# conditions: simulated gastric fluid (SGF), pH 1, simulated gastric fluid, thermodynamic from solid, SGF (pH of 1.0), 24 hours
measured property: solubility at 24 h

Request: Give the measured solubility at 24 h of CCCc1nc(-c2ccc(-c3ccc(CCC(N)(CO)CO)cc3)cc2)co1.Cl [Crystal form A] .
Response: 460 µg/mL

----------
# test name: Dynamic solubility in biorelevant media and buffers at 37 °C (HPLC, XRPD of solids)
# Format: physicochemical
# conditions: acetic acid-sodium acetate buffer, pH 4, aqueous buffer, thermodynamic from solid, pH = 4.0 acetic acid-sodium acetate buffer, 4 hours
measured property: solubility at 4 h (µg/mL)
Dear colleague, please return just the value in µg/mL, with no unit written.

Request: Give the measured solubility at 4 h of CCCc1nc(-c2ccc(-c3ccc(CCC(N)(CO)CO)cc3)cc2)co1.Cl [Crystal form A] .
Response: 1360
